Tested on: EPLC-272H
Assay: relative viability (nuclei count vs DMSO), 5 days (fraction); higher = more cells survive
Settings: first compound 15.81 µM

| COMPOUND | relative viability |
| --- | --- |
| O=C(O)CCCCC(CCSCc1ccccc1)SCc1ccccc1 (centres undefined) [CPI-613] + N=C(N)NC(=N)NCCc1ccccc1 [Phenformin] (partner 250 µM) | 0.26 |
| O=C(O)CCCCC(CCSCc1ccccc1)SCc1ccccc1 (centres undefined) [CPI-613] + CCNC(=O)c1noc(-c2cc(C(C)C)c(O)cc2O)c1-c1ccc(CN2CCOCC2)cc1 [Luminespib] (partner 0.01 µM) | 0.32 |
| O=C(O)CCCCC(CCSCc1ccccc1)SCc1ccccc1 (centres undefined) [CPI-613] + COc1cc2c(Oc3ccc(NC(=O)C4(C(=O)Nc5ccc(F)cc5)CC4)cc3F)ccnc2cc1OCCCN1CCOCC1 [Foretinib] (partner 0.25 µM) | 0.597 |
| O=C(O)CCCCC(CCSCc1ccccc1)SCc1ccccc1 (centres undefined) [CPI-613] + CC(=O)c1c(C)c2cnc(Nc3ccc(N4CCNCC4)cn3)nc2n(C2CCCC2)c1=O [Palbociclib] (partner 0.5 µM) | 0.315 |
